System: Staphylococcus aureus
measurement-notes: Antibacterial activity against methicillin-resistant Staphylococcus aureus assessed as percent resistant isolates by broth microdilution method
Format: functional
measured-parameter: Activity (%)
Give bare numbers, in %.

Please look at the items below and tell me Activity for each one, in order.
1. C[C@H]1COc2c(N3CCN(C)CC3)c(F)cc3c(=O)c(C(=O)O)cn1c23.C[C@H]1COc2c(N3CCN(C)CC3)c(F)cc3c(=O)c(C(=O)O)cn1c23.O [LEVOFLOXACIN]
2. CCC[C@@H]1C[C@@H](C(=O)N[C@@H]([C@H]2O[C@H](SC)[C@H](O)[C@@H](O)[C@H]2O)[C@H](C)Cl)N(C)C1 [CLINDAMYCIN]
3. CC[C@H]1OC(=O)[C@H](C)[C@@H](O[C@H]2C[C@@](C)(OC)[C@@H](O)[C@H](C)O2)[C@H](C)[C@@H](O[C@@H]2O[C@H](C)C[C@H](N(C)C)[C@H]2O)[C@](C)(O)C[C@@H](C)C(=O)[C@H](C)[C@@H](O)[C@]1(C)O [ERYTHROMYCIN]

56.3
43.8
87.5

---

Please go through the items and note down their Activity.
Test system: Staphylococcus aureus
measurement-notes: Antibacterial activity against methicillin-susceptible Staphylococcus aureus assessed as percent resistant isolates by broth microdilution method
Format: functional
Numbers only, in %.

# annotated cases, reported Activity shown
CN[C@H](CC(C)C)C(=O)N[C@H]1C(=O)N[C@@H](CC(N)=O)C(=O)N[C@H]2C(=O)N[C@H]3C(=O)N[C@H](C(=O)N[C@H](C(=O)O)c4cc(O)cc(O)c4-c4cc3ccc4O)[C@H](O)c3ccc(c(Cl)c3)Oc3cc2cc(c3O[C@@H]2O[C@H](CO)[C@@H](O)[C@H](O)[C@H]2O[C@H]2C[C@](C)(N)[C@H](O)[C@H](C)O2)Oc2ccc(cc2Cl)[C@H]1O : 0
C[C@H]1COc2c(N3CCN(C)CC3)c(F)cc3c(=O)c(C(=O)O)cn1c23.C[C@H]1COc2c(N3CCN(C)CC3)c(F)cc3c(=O)c(C(=O)O)cn1c23.O : 9.3
CC[C@H]1OC(=O)[C@H](C)[C@@H](O[C@H]2C[C@@](C)(OC)[C@@H](O)[C@H](C)O2)[C@H](C)[C@@H](O[C@@H]2O[C@H](C)C[C@H](N(C)C)[C@H]2O)[C@](C)(O)C[C@@H](C)C(=O)[C@H](C)[C@@H](O)[C@]1(C)O : 16.3

For each of the compounds below, note its Activity.
1. CO[C@H]1/C=C/O[C@@]2(C)Oc3c(C)c(O)c4c(O)c(c(/C=N/N5CCN(C)CC5)c(O)c4c3C2=O)NC(=O)/C(C)=C\C=C\[C@H](C)[C@H](O)[C@@H](C)[C@@H](O)[C@@H](C)[C@H](OC(C)=O)[C@@H]1C
2. CCC[C@@H]1C[C@@H](C(=O)N[C@@H]([C@H]2O[C@H](SC)[C@H](O)[C@@H](O)[C@H]2O)[C@H](C)Cl)N(C)C1

1. 2.3
2. 2.3

---

System: Staphylococcus aureus
measurement-notes: Antibacterial activity against methicillin-resistant Staphylococcus aureus assessed as percent resistant isolates by broth microdilution method
Format: functional
measured-parameter: Activity (%)
Numbers only, in %.

CO[C@H]1/C=C/O[C@@]2(C)Oc3c(C)c(O)c4c(O)c(c(/C=N/N5CCN(C)CC5)c(O)c4c3C2=O)NC(=O)/C(C)=C\C=C\[C@H](C)[C@H](O)[C@@H](C)[C@@H](O)[C@@H](C)[C@H](OC(C)=O)[C@@H]1C : 18.8

Shift focus to the following entry.
Recorded Activity of `CN[C@H](CC(C)C)C(=O)N[C@H]1C(=O)N[C@@H](CC(N)=O)C(=O)N[C@H]2C(=O)N[C@H]3C(=O)N[C@H](C(=O)N[C@H](C(=O)O)c4cc(O)cc(O)c4-c4cc3ccc4O)[C@H](O)c3ccc(c(Cl)c3)Oc3cc2cc(c3O[C@@H]2O[C@H](CO)[C@@H](O)[C@H](O)[C@H]2O[C@H]2C[C@](C)(N)[C@H](O)[C@H](C)O2)Oc2ccc(cc2Cl)[C@H]1O` , please.
15.6
